Values were extracted from the supplement of paper PMC10646978.

test system: RAW-Dual (murine macrophage reporter line); test: NF-kB reporter (SEAP) activity fold change vs agonist alone; higher = enhanced NF-kB activity; conditions: modulator concentration 10 µM; agonist: LPS 0.1 ug/mL
Using NF-kB reporter as the sorting value, the categories are low: < 0.9; medium: ≥ 0.9 and < 1; high: ≥ 1

O=C(CCC(=O)NN=Cc1ccc(O)cc1O)NN=Cc1ccc(O)cc1O
high
FC(F)(F)c1ccc(CNc2ccc(Cc3c[nH]c4ncc(Cl)cc34)cn2)cn1
low
Cc1cc(CNC(=O)CCc2ccc(S(C)(=O)=O)cc2)c(C)o1
high

Which NF-kB reporter band matches COC(c1ccccc1)(c1ccccc1)[C@H](Oc1nc(C)cc(C)n1)C(=O)O ? high

Field: class (NF-kB reporter) — entry: Cc1cc(O)c2c(c1)C(=O)c1cccc(O)c1C2=O high

// bin(item) where item = COc1ccccc1OCC(O)CN1CCN(CC(=O)Nc2c(C)cccc2C)CC1 (stereo unspecified) medium

Please let me know in which category the item COc1ccc(-c2oc3ccc(OC)cc3c2C(=O)Nc2ccccc2Cl)cc1 belongs. high

Class label required: CN(C)CCC(c1ccccc1)c1ccccn1.O=C(O)/C=C\C(=O)O (stereo unspecified) low

For CSc1nnc(CSc2nc(C)cc(C)n2)n1-c1cccc(C(F)(F)F)c1 , which NF-kB reporter bin applies? low

Any idea which band COc1cc(C=NNC(=O)c2ccc(OC)c(OC)c2)ccc1O is in? low

Band of Cc1cc(C)c(NC(=O)c2ccc(Oc3nccs3)cc2)c(C)c1 ? high

Which bin should I file Cc1ccc(NC(=O)c2ccc(CN3CCN(C)CC3)cc2)cc1Nc1nc(-c2cccnc2)cs1 under? high

Which class holds COc1ccc(Cl)cc1C(=O)Nc1ccc(NC(=O)c2ccccc2)cc1 ? high

Kindly state the category for this molecule: Cc1nnc(C)n1N=Cc1ccc(C(F)(F)F)cc1 low

Which of the defined bands does the recorded NF-kB reporter of CC(Oc1cccc(Cl)c1)C(=O)NCc1ccncc1 (stereo unspecified) sit within? high

Bin? COc1ccc(C)c2sc(NC(=O)c3ccco3)nc12 low
